The reported numbers originate from BindingDB's records for doi:10.7270/Q2DV1HH8.

pIC50: −log10 of the molar value.
Reported pIC50 for target or system Protein skinhead-1 (Caenorhabditis elegans, UniProt P34707), by entry.
Readout Name: pIC50

>>> quantitative_readout("COC(=O)[C@]12OC[C@]34[C@H]([C@@H](O)[C@@H]1O)[C@@]1(C)CC(=O)C(=O)C(C)[C@@H]1C[C@H]3OC(=O)[C@H](OC(=O)/C=C(\\C)C(C)C)[C@@H]24 (stereo not given in full)")
4.12
>>> quantitative_readout("O=C(CC=Nc1ccc(F)c(Cl)c1)c1ccco1")
4.78
>>> quantitative_readout("O=C(c1ccco1)C(C=Nc1ccc(Br)cc1)C(=O)C(F)(F)F (stereo not given)")
4.68
>>> quantitative_readout("O=C(CC=Nc1ccc(F)c(F)c1)c1cccs1")
4.94
